assay: Quantitative High-Throughput drug screen in 47 multiple myeloma cell lines against the NCATS MIPE library collection: KMS27_JCRB cell viability assay (AID 1918970); conditions: KMS27 myeloma cells, CellTiter-Glo ATP viability, 48 h; note: nearly all actives have a fitted effect of over 30% in size
Records with an inconclusive call do not appear. Active and inactive are the calls of the source. Calls come from the whole dose curve; as a rule, active = well fitted cell-killing curve with a large enough effect; inconclusive = small, poorly fitted or top-dose-only effect, or effect the other way; inactive = no such curve, though single readings can be large or run the other way.
Hi there, use one of these labels in your reply, thanks! True for active, False for inactive

Reference set, count: 5
CCCCc1ccc(NS(=O)(=O)c2ccc(C)c(C(=O)N3CCN(c4cccc(C)c4C)CC3)c2)cc1    False
CCOC(=O)c1c(CSc2ccccc2)n(C)c2cc(Br)c(O)c(CN(C)C)c12    True
CCN1C[C@H](C)n2c(c(O)c3c(=O)n(Cc4ccc(F)c(Cl)c4)nc(C(=O)NC)c32)C1=O    False
CNc1nc(-c2ccc3c(N)n[nH]c3c2)cc(N2C[C@@H](C(=O)NC3CCCCC3)CC[C@@H]2C)n1    True
CNC1[C@H](O)C(O[C@@H]2C(O)C(O[C@H]3O[C@H]([C@@H](C)NC)CC[C@H]3N)[C@@H](N)C[C@H]2N)OC[C@]1(C)O (some centres undefined)    False

Challenge: Recorded test outcome, item O=C(O)CCC=CCC[C@@H]1[C@H](N2CCCCC2)[C@@H](O)C[C@@H]1OCc1ccc(-c2ccccc2)cc1
Response given: False

Challenge: Assay result, entry Cn1cnc(-c2cc3nccc(Oc4ccc(NC(=S)NC(=O)Cc5ccccc5)cc4F)c3s2)c1 — outcome?
Response given: True

Challenge: Identify the outcome logged in this assay for the compound shown: C[C@@H](N)c1ccc(C(=O)Nc2ccnc3[nH]ccc23)cc1
Response given: True

Challenge: Kindly provide the recorded test outcome for the following compound: CC1(C)C(N(O)C(=O)Nc2ccc(Cl)cc2)N(c2ccc(Cl)cc2)C(=O)N1CC(=O)NN=CC=Cc1ccc([N+](=O)[O-])o1 (centres undefined)
Response given: False

Challenge: Look up the recorded call for N=C1SC(=Cc2ccc(-c3ccc4c(c3)C(=O)NC4=O)o2)C(=O)N1c1ccc(Br)cc1 in this test.
Response given: False

Challenge: Hey, what did the test say about CCc1cc(-c2n[nH]c(C)c2-c2ccc3c(c2)OCCO3)c(O)cc1O ?
Response given: True

Challenge: Each compound tested received a call. Report the one for CC(C)(C)c1nc(-c2cccc(NS(=O)(=O)c3c(F)cccc3F)c2F)c(-c2ccnc(N)n2)s1 .
Response given: True

* * *

Experiment: qHTS of pediatric cancer cell lines to identify multiple opportunities for drug repurposing: Primary screen for MG 63 (6-TG R) cells (AID 1347105); note: nearly all actives have a fitted effect of over 50% in size
Settings: MG 63 (6-TG R) viability, CellTiter-Glo, 48 h; series mostly up to 46 µM
Protocol: Drug repurposing or repositioning has been offered as a strategy for drug development in oncology programs. This approach has special potential for childhood cancers and other rare or orphan diseases, where the expected return on new drug development has been a disincentive to pharmaceuticals. […] We employed a titration-based paradigm (quantitative high-throughput screening or qHTS), where all compounds were tested at multiple concentrations for their effect on cell viability. […]
Results filed as inconclusive are left out. Active and inactive are the calls of the source. Calls come from the whole dose curve; as a rule, active = well fitted cell-killing curve with a large enough effect; inconclusive = small, poorly fitted or top-dose-only effect; inactive = no such curve, though single readings can be large or run the other way.
Your answer must be one of the following: true = active, false = inactive

Some solved entries appear below for comparison.
Cc1c(-c2cccc3c(CCCOc4cccc5ccccc45)c(C(=O)O)n(Cc4cccnc4)c23)c(COc2ccc(N3CCN([S+](=O)([O-])N(C)C)CC3)cc2)nn1C    true
CC1CNc2c(cccc2S(=O)(=O)N[C@@H](CCCN=C(N)N)C(=O)N2CC[C@@H](C)C[C@@H]2C(=O)O)C1 (stereo partly specified)    false
CN(C)c1ccc(-c2nc3ncc(Cl)c(N4CCN(CC(=O)Nc5nccs5)CC4)c3[nH]2)cc1    false
NC(=O)c1nnn(Cc2cc(Cl)c(C(=O)c3ccc(Cl)cc3)c(Cl)c2)c1N    false

Challenge: Look up the recorded call for CC(C)(OCc1nn(Cc2ccccc2)c2ccccc12)C(=O)O in this test.
Response given: false

Challenge: Entry Cc1c(C(=O)Nc2ccc(N3C[C@@H](C)O[C@@H](C)C3)nc2)cccc1-c1ccc(OC(F)(F)F)cc1 : call = ?
Response given: true

* * *

assay: qHTS Screen of the MIPE 4.0 Collection Against Ewings Sarcoma (TC71) (AID 1259253); conditions: TC71 Ewing sarcoma viability, CellTiter-Glo, 48 h; series mostly up to 45.8 µM; note: nearly all actives have a fitted effect of over 40% in size; note: potency is the fitted concentration of half-maximal effect
Records with an inconclusive call do not appear. Calls of active or inactive are those of the source. Calls come from the whole dose curve; as a rule, active = well fitted inhibition curve with a large enough effect; inconclusive = small, poorly fitted or top-dose-only effect; inactive = no such curve, though single readings can be large or run the other way.
readout-kind: Potency

These solved cases illustrate the format of a correct answer.
C[C@@H](N)c1ccc(C(=O)Nc2ccnc3[nH]ccc23)cc1    16.6 µM (active)
Cc1ccc(S(=O)(=O)Nc2nc3ccccc3nc2Nc2ccc3nsnc3c2)cc1    12.9 µM (active)
CCCC1OC2C[C@@H]3[C@H]4CCC5=CC(=O)C=C[C@]5(C)[C@H]4C(O)C[C@]3(C)[C@]2(C(=O)CO)O1 (stereo partly drawn)    13.2 µM (active)
Cc1ccc2c(=O)c3cccc(CC(=O)O)c3oc2c1C    18.7 µM (active)

Quick request: Potency for each listed item, please.
1. CN(C)CCN(C)C(=O)c1ccc(NC(=O)Nc2ccc(-c3nc(N4CCOCC4)c4ccn(CC(F)(F)F)c4n3)cc2)cc1
2. CNC(=O)c1cc(Oc2ccc(NC(=O)Nc3ccc(Cl)c(C(F)(F)F)c3)c(F)c2)ccn1
3. O=C(CO)N1CCC(c2[nH]nc(-c3ccc(Cl)cc3)c2-c2ccncn2)CC1

Response given:
0.0743 µM (active)
20.9 µM (active)
inactive

* * *

assay: qHTS of pediatric cancer cell lines to identify multiple opportunities for drug repurposing: Primary screen for LAN-5 cells (AID 1347100); conditions: LAN-5 neuroblastoma viability, CellTiter-Glo luminescence, 48 h; series mostly up to 46 µM
Records with an inconclusive call do not appear. Activity calls are given as the source filed them. The call rests on the fitted dose curve; in most records, active means well fitted cell-killing curve with a large enough effect; inconclusive means small, poorly fitted or top-dose-only effect; inactive means no such curve, though single readings can be large or run the other way.
Tick one outcome: active, inactive

Worked examples, 5 compounds total:
CC(=O)OCC(=O)[C@@]12OC(C)(C)O[C@H]1C[C@H]1[C@@H]3C[C@H](F)C4=CC(=O)C=C[C@]4(C)[C@@]3(F)[C@@H](O)C[C@@]12C    inactive
COc1ccc(CCN(C)CCCOc2ccc(S(=O)(=O)c3[nH]c4ccccc4c3C(C)C)cc2)cc1OC    active
O=C(c1ccc(C(=O)N2CCC(N3CCCC3)CC2)c(Nc2ccccc2)c1)N1CCC(N2CCCC2)CC1    inactive
CCCCC(F)(F)[C@@]1(O)CC[C@H]2[C@H](CC(=O)[C@@H]2CCCCCCC(=O)O)O1    inactive
CN1CCc2c(n(Cc3ccc(C(=O)NO)cc3)c3ccccc23)C1    active

Consider the record given below.
Challenge: Status in this test for O=C(Nc1ncc(SCCN2CCCC2)s1)[C@]1(c2ccc(S(=O)(=O)C3CC3)cc2)C[C@@H]1C1CCCCC1 ?
Response given: active

* * *

experiment: qHTS of pediatric cancer cell lines to identify multiple opportunities for drug repurposing: Primary screen for DAOY cells (AID 1347090); settings: DAOY medulloblastoma viability, CellTiter-Glo luminescence, 48 h; series mostly up to 46 µM; note: nearly all actives have a fitted effect of over 55% in size; note: potency is the fitted concentration of half-maximal effect
Inconclusive results are not listed. Activity calls are given as the source filed them. The call rests on the fitted dose curve; in most records, active means well fitted cell-killing curve with a large enough effect; inconclusive means small, poorly fitted or top-dose-only effect; inactive means flat fitted curve, though single readings scatter.
readout-kind: Potency

Solved entries (count: 5):
CC(C)(O)CC(=O)NCCn1ccc2ncnc(Nc3ccc(Oc4cccc(C(F)(F)F)c4)c(Cl)c3)c21    0.469 µM (active)
O=C1C(CCC(O)c2ccc(F)cc2)C(c2ccc(O)cc2)N1c1ccc(F)cc1 (stereo unspecified)    inactive
O=C1C(c2c(O)[nH]c3ccccc23)=Nc2ccccc21    0.59 µM (active)
CC(C)CN(C[C@@H](O)[C@H](Cc1ccccc1)NC(=O)O[C@H]1CO[C@H]2OCC[C@H]21)S(=O)(=O)c1ccc(N)cc1    14.8 µM (active)
CN[C@@H]1CN(c2ccc3c(=O)c(C(=O)O)cn(-c4nccs4)c3n2)C[C@@H]1OC    8.12 µM (active)

For every record below, what is its Potency?
1. CCN(CCO)CCCOc1ccc2c(Nc3cc(CC(=O)Nc4cccc(F)c4)[nH]n3)ncnc2c1
2. OC(c1cc(C(F)(F)F)nc2c(C(F)(F)F)cccc12)C1CCCCN1 (stereo unspecified)
3. CO[C@H]1/C=C\O[C@@]2(C)Oc3c(C)c(O)c4c(O)c(c(C=NN5CCN(C6CCCC6)CC5)c(O)c4c3C2=O)NC(=O)C(C)=CC=C[C@H](C)[C@H](O)[C@@H](C)[C@@H](O)[C@@H](C)[C@H](OC(C)=O)[C@H]1C
4. Cc1ccc(NC(=O)Nc2cc(C(F)(F)F)ccc2F)cc1Nc1ccc2c(c1)NC(=O)C2=Cc1ccc[nH]1
5. Cc1nc(NC(=O)N2CCC[C@@H]2C(N)=O)sc1-c1csc(C(C)(C)C)n1
6. Cc1cn([C@@H]2C[C@@H](O)[C@H](CO)O2)c(=O)[nH]c1=O

Response given:
inactive
inactive
0.296 µM (active)
14.8 µM (active)
14.8 µM (active)
inactive
